system_name: PHF (paired helical filaments) isolated from the brain of an Alzheimer's disease patient (Homo sapiens, UniProt P10636)
Sequence (P10636 623-708 limits assumed): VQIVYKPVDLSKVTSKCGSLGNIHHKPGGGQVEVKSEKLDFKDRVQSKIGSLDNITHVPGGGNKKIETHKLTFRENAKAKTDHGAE
assay_notes: Competitive binding assay: displacement of primulin fluorescence from PHFs
condition_set: concentration that reduces the signal of 1 μM primulin to 50% of control; relative affinity; read-out: P50
pIC50: −log10 of the molar value.
parameter: pIC50

Below, each entry is followed by its recorded pIC50 result.
CNc1c(F)cc(C(=O)Nc2ccc(-c3cn4cc(C)ccc4n3)cc2)cc1F; 6.34
Cc1ccc2nc(-c3ccc(NC(=O)c4ccc([N+](=O)[O-])cc4)cc3)cn2c1; 7.00
O=C(Nc1ccc(-c2nc3ccc(O)cc3s2)cc1)c1ccc([N+](=O)[O-])c(C(F)(F)F)c1; 6.72

1 = Cc1ccc2nc(-c3ccc(/N=N/c4ccc(O)cc4C(F)(F)F)cc3)sc2c1
2 = Oc1ccc(/N=N/c2ccc(-c3nc4ccc(O)cc4s3)cc2O)c(C(F)(F)F)c1
3 = COc1ccc2nc(-c3ccc(NC(=O)c4ccccc4N)cc3)sc2c1
Exercise: // ascending sort on recorded pIC50 Your answer should be the labels, listed in the requested order.
Key: 3, 1, 2
(3: 6.06, 1: 6.54, 2: 7.52)
